Reference for the values: paper PMC10786919

- procedure text: Experimental LogD (partition coefficient)
- recorded conditions: not stated, Partition Coeff LogD
Positions of bridges follow the written chain, without caps; N, C: chain ends. Non-standard residues stand in square brackets, D forms with d. Residues, ends and D or L forms follow the SMILES beside them. Lys(N3) = [N-]=[N+]=NCCCC[C@H](N)C(=O)O; R8 = C=CCCCCCC[C@@](C)(N)C(=O)O; Cba = N[C@@H](CC1CCC1)C(=O)O; S5 = C=CCCC[C@](C)(N)C(=O)O; βAla = NCCC(=O)O
measured metric: logD
Keep the answer to the number alone.

Incoming: Which logD is listed for `CC(=O)N[C@@H](CC(C)C)C(=O)N[C@H](C(=O)N[C@@H](Cc1ccccc1)C(=O)NC(C)(C)C(=O)N[C@@H](CCC(=O)O)C(=O)N[C@@H](Cc1ccc(O)cc1)C(=O)N[C@H](Cc1c[nH]c2ccccc12)C(=O)N[C@@H](C)C(=O)N[C@@H](CCC(N)=O)C(=O)N[C@@H](CC1CCC1)C(=O)NC(C)(C)C(=O)N[C@@H](CO)C(=O)N[C@@H](C)C(=O)N[C@@H](C)C(N)=O)[C@@H](C)O` ?
Outgoing: 2.08

Next item in the queue.
Incoming: If you can, please state the reported logD value of CC(=O)N[C@@H](CCCCN=[N+]=[N-])C(=O)NCCC(=O)N[C@@H](CC(C)C)C(=O)N[C@H](C(=O)N[C@@H](Cc1ccccc1)C(=O)N[C@]1(C)CCCCCCC=CCCC[C@@](C)(C(=O)N[C@@H](CO)C(=O)N[C@@H](C)C(=O)N[C@@H](C)C(N)=O)NC(=O)[C@H](CC2CCC2)NC(=O)[C@H](CCC(N)=O)NC(=O)[C@H](C)NC(=O)[C@H](Cc2c[nH]c3ccccc23)NC(=O)[C@H](Cc2ccc(O)cc2)NC(=O)CNC1=O)[C@@H](C)O [MP-210] (Ac-[Lys(N3)][βAla]LTF[R8]GYWAQ[Cba][S5]SAA-NH2; staple 6-13) .
Outgoing: 3.35

* * *

- System: p53 responsive β-lactamase reporter in HCT116 cells
- procedure text: cells
- Type: cell-based
- recorded conditions: Homo sapiens, HCT-116, 4 h, 10% FBS 4Hr; read-out: p53 reporter assay EC50
measured metric: pEC50
Would you please state pEC50, meaning minus log10 of the concentration in mol/L, as a bare number?

Incoming: Please look up its pEC50: `CC(C)[C@@H](CS(=O)(=O)C(C)C)N1C(=O)[C@@](C)(CC(=O)O)C[C@H](c2cccc(Cl)c2)[C@H]1c1ccc(Cl)cc1`
Outgoing: 7.13

* * *

- procedure text: Solubility assay (kinetic solubility, PBS pH 7)
- Type: physicochemical
- recorded conditions: pH 7, aqueous buffer, kinetic from dmso stock, pH 7, PBS; read-out: Solubility
measured metric: solubility kinetic (µM)
Report the figure in µM without appending any unit label.

Incoming: # solubility kinetic lookup, item `CC(=O)N[C@H](C(=O)N[C@@H](CO)C(=O)N[C@@H](Cc1ccccc1)C(=O)N[C@]1(C)CCCCCCC=CCCC[C@@](C)(C(N)=O)NC(=O)[C@H](CC(C)C)NC(=O)[C@H](CC(C)C)NC(=O)[C@H](C)NC(=O)[C@H](Cc2c[nH]c3ccccc23)NC(=O)[C@H](Cc2ccc(O)cc2)NC(=O)[C@H](CCC(=O)O)NC1=O)[C@@H](C)O`
Outgoing: 77

New cases:
Incoming: For the compound shown here, `CC(=O)N[C@@H](CCCCN=[N+]=[N-])C(=O)NCCC(=O)N[C@@H](CC(C)C)C(=O)N[C@H](C(=O)N[C@@H](Cc1ccccc1)C(=O)N[C@]1(C)CCCCCCC=CCCC[C@@](C)(C(=O)N[C@@H](CO)C(=O)N[C@@H](C)C(=O)N[C@@H](C)C(N)=O)NC(=O)[C@H](CC2CCC2)NC(=O)C(C)(C)NC(=O)[C@H](C)NC(=O)[C@H](Cc2c[nH]c3ccccc23)NC(=O)[C@H](Cc2ccc(O)cc2)NC(=O)[C@H](CCC(=O)O)NC1=O)[C@@H](C)O` , give the reported solubility kinetic.
Outgoing: 34

Incoming: Find the recorded solubility kinetic belonging to `CC(=O)N[C@@H](CCCCN=[N+]=[N-])C(=O)NCCC(=O)N[C@@H](CC(C)C)C(=O)N[C@H](C(=O)N[C@@H](Cc1ccccc1)C(=O)N[C@]1(C)CCCCCCC=CCCC[C@@](C)(C(=O)N[C@@H](CO)C(=O)N[C@@H](C)C(=O)N[C@@H](C)C(N)=O)NC(=O)[C@H](CC2CCC2)NC(=O)[C@H](CCC(N)=O)NC(=O)[C@H](C)NC(=O)[C@H](Cc2c[nH]c3cc(F)ccc23)NC(=O)[C@H](Cc2ccc(O)cc2)NC(=O)[C@H](CCC(=O)O)NC1=O)[C@@H](C)O` and report it.
Outgoing: 110

Incoming: Item `CC(=O)N[C@@H](CCCNC(=N)N)C(=O)N[C@@H](CCCNC(=N)N)C(=O)NCCC(=O)N[C@@H](CCCCN=[N+]=[N-])C(=O)N[C@@H](CC(C)C)C(=O)N[C@H](C(=O)N[C@@H](Cc1ccccc1)C(=O)N[C@]1(C)CCCCCCC=CCCC[C@@](C)(C(=O)N[C@@H](CO)C(=O)N[C@@H](C)C(=O)N[C@@H](C)C(N)=O)NC(=O)[C@H](CC2CCC2)NC(=O)[C@H](CCC(N)=O)NC(=O)[C@H](C)NC(=O)[C@H](Cc2c[nH]c3ccccc23)NC(=O)[C@H](Cc2ccc(O)cc2)NC(=O)[C@H](CCC(=O)O)NC1=O)[C@@H](C)O` has what recorded solubility kinetic?
Outgoing: 2

Incoming: Which solubility kinetic is reported for this compound? `CC(=O)N[C@H](CC(C)C)C(=O)N[C@H](C(=O)N[C@@H](Cc1ccccc1)C(=O)NC(C)(C)C(=O)N[C@@H](CCC(=O)O)C(=O)N[C@@H](Cc1ccc(O)cc1)C(=O)N[C@@H](Cc1c[nH]c2ccccc12)C(=O)N[C@@H](CCC(N)=O)C(=O)N[C@@H](CC(C)C)C(=O)N[C@@H](CC1CCC1)C(=O)NC(C)(C)C(=O)N[C@@H](CO)C(=O)N[C@@H](C)C(=O)N[C@@H](C)C(N)=O)[C@@H](C)O`
Outgoing: 24

Incoming: Please give the measured solubility kinetic for this compound: `CC(=O)N[C@@H](CCCNC(=N)N)C(=O)N[C@@H](CCCNC(=N)N)C(=O)NCCC(=O)N[C@@H](CC(C)C)C(=O)N[C@H](C(=O)N[C@@H](Cc1ccccc1)C(=O)N[C@]1(C)CCCCCCC=CCCC[C@@](C)(C(=O)N[C@@H](CO)C(=O)N[C@@H](C)C(=O)N[C@@H](C)C(N)=O)NC(=O)[C@H](CC2CCC2)NC(=O)[C@H](CCC(N)=O)NC(=O)[C@H](C)NC(=O)[C@H](Cc2c[nH]c3ccccc23)NC(=O)[C@H](Cc2ccc(O)cc2)NC(=O)[C@H](CCC(=O)O)NC1=O)[C@@H](C)O`
Outgoing: 11
